SYSTEM UNDER TEST: KRas WT (Homo sapiens, UniProt P01116)
Construct: Biotinylated KRas (corresponding to amino acids 1-169, produced at Accelegan Inc.); biotin (biotinylated); purchased Accelegan Inc
Sequence (P01116 1-169 isoform P01116-2): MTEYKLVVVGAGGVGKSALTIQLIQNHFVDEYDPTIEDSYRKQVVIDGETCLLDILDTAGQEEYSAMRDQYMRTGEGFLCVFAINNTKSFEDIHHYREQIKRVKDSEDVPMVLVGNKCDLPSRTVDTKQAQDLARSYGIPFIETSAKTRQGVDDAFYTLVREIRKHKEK
METHOD: KRas binding assay, TR-FRET displacement of Cy5 labelled tracer
RUN PARAMETERS: 60-minute incubation at room temperature, 1% DMSO, pH 7.5
PROPERTY LABEL: IC50 (nM)

Previously resolved entries follow.
CCc1c(F)ccc2cc(O)cc(-c3ncc4c(N5CCC(C(=O)n6ccc(N(C)C)n6)CC5)nc(OC[C@@]56CCCN5C[C@H](F)C6)nc4c3F)c12 [Example 58]: 89
CCc1c(F)ccc2cc(O)cc(-c3ncc4c(N(C)CCN(C)C(=O)n5cncn5)nc(OC[C@@]56CCCN5C[C@H](F)C6)nc4c3F)c12 [Example 223]: 164

(A) CCc1c(F)ccc2cc(O)cc(-c3ncc4c(N5CCCC6CC6(C(=O)n6ccc(C)n6)CC5)nc(OC[C@@]56CCCN5C[C@H](F)C6)nc4c3F)c12 (stereo partly drawn) [Example 117]
(B) CCc1c(F)ccc2cc(O)cc(-c3ncc4c(NCCCC(=O)n5ccc(C)n5)nc(OC[C@@]56CCCN5C[C@H](F)C6)nc4c3F)c12 [Example 111]
(C) CCc1c(F)ccc2cc(O)cc(-c3ncc4c(N(C)CCCS(=O)(=O)n5ccnc5)nc(OC[C@@]56CCCN5C[C@H](F)C6)nc4c3F)c12 [Example 163]
(D) N#Cc1c(N)sc2c(F)ccc(-c3c(Cl)cc4c(N5CCC(C(=O)Oc6ccccc6F)CC5)nc(OC[C@@]56CCCN5C[C@H](F)C6)nc4c3F)c12 [Example 288]
Task item: Rank ascending by IC50. Would you mind listing the labels in the order requested?
Reply: B, A, C, D

----------
SYSTEM UNDER TEST: KRas G12C (Homo sapiens, UniProt P01116, G12C)
Construct: Biotinylated KRas (corresponding to amino acids 1-169, produced at Accelegan Inc.); biotin (biotinylated); purchased Accelegan Inc
Sequence (P01116 1-169 isoform P01116-2 G12C): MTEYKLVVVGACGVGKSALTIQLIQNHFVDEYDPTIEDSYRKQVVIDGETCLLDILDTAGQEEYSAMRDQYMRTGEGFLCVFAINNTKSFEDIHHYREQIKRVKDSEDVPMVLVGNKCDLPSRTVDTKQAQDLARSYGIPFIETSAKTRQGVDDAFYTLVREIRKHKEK
METHOD: KRas binding assay, TR-FRET displacement of Cy5 labelled tracer
RUN PARAMETERS: 60-minute incubation at room temperature, 1% DMSO, pH 7.5
PROPERTY LABEL: IC50 (nM)

(1) CCc1c(F)ccc2cc(O)cc(-c3ncc4c(N(C)CC(C)CC(=O)N(C)C(C)=O)nc(OC[C@@]56CCCN5C[C@H](F)C6)nc4c3F)c12 (stereo partly drawn) [Example 283]
(2) CC(=O)N(C)C(=O)C(C)CCN(C)c1nc(OC[C@@]23CCCN2C[C@H](F)C3)nc2c(F)c(-c3ccc(F)c4sc(N)c(C#N)c34)c(Cl)cc12 (stereo partly drawn) [Example 304]
Task item: // compare measured IC50 between 1 and 2 ; output the lower one Label of pick, please.
Reply: 2

----------
SYSTEM UNDER TEST: KRas WT (Homo sapiens, UniProt P01116)
Construct: Biotinylated KRas (corresponding to amino acids 1-169, produced at Accelegan Inc.); biotin (biotinylated); purchased Accelegan Inc
METHOD: KRas binding assay, TR-FRET displacement of Cy5 labelled tracer
RUN PARAMETERS: 60-minute incubation at room temperature, 1% DMSO, pH 7.5
PROPERTY LABEL: IC50 (nM)

(P) Cc1ccn(C(=O)CC2CN(c3nc(OC[C@@]45CCCN4C[C@H](F)C5)nc4c(F)c(-c5ccc(F)c6sc(N)c(C#N)c56)c(Cl)cc34)C2)n1
(Q) CCc1c(F)ccc2cc(O)cc(-c3ncc4c(N(C)CCC(=O)N(C)C(C)=O)nc(OC[C@@]56CCCN5C[C@H](F)C6)nc4c3F)c12
Task item: // compare measured IC50 between P and Q ; output the lower one Label of pick, please.
Reply: P

----------
SYSTEM UNDER TEST: KRas WT (Homo sapiens)
Construct: Biotinylated KRas (corresponding to amino acids 1-169, produced at Accelegan Inc.); biotin (biotinylated); purchased Accelegan Inc
METHOD: KRas binding assay, TR-FRET displacement of Cy5 labelled tracer
RUN PARAMETERS: 60-minute incubation at room temperature, 1% DMSO, pH 7.5
PROPERTY LABEL: IC50 (nM)

Previously resolved entries follow.
CCc1c(F)ccc2cc(O)cc(-c3ncc4c(N5CCC(C(=O)n6cc(OC)cn6)CC5)nc(OC[C@@]56CCCN5C[C@H](F)C6)nc4c3F)c12 [Example 294]: 130
CC(=O)N(C)C(=O)[C@H]1CCCN(c2nc(OC[C@@]34CCCN3C[C@H](F)C4)nc3c(F)c(-c4ccc(F)c5sc(N)c(C#N)c45)c(Cl)cc23)CC1 (atropisomer, axis not shown; (aS)) [Example 256]: 4
CCc1c(F)ccc2cc(O)cc(-c3ncc4c(N5CCCCC(C(=O)n6ccc(C)n6)C5)nc(OC[C@@]56CCCN5C[C@H](F)C6)nc4c3F)c12 (stereo partly drawn) [Example 68]: 10
CCc1c(F)ccc2cc(O)cc(-c3ncc4c(N5CCCCC(C(=O)n6ccc(C)n6)CC5)nc(OC[C@@]56CCCN5C/C(=C\F)C6)nc4c3F)c12 (stereo partly drawn) [Example 124]: 103
CCc1c(F)ccc2cc(O)cc(N3CCc4c(nc(OC[C@@]56CCCN5C[C@H](F)C6)nc4NCCC(=O)n4ccc(C)n4)C3)c12 [Example 195]: 43
COC(=O)[C@H]1CCN(c2nc(OCC34CCCN3CCC4)nc3c(F)c(-c4cccc5cccc(F)c45)ncc23)C[C@@H]1O [Example 45]: 65700
COc1ccn(C(=O)C2CCCN(c3nc(OC[C@@]45CCCN4C[C@H](F)C5)nc4c(F)c(-c5ccc(F)c6sc(N)c(C#N)c56)c(Cl)cc34)CC2)n1 (stereo partly drawn) [Example 140]: 15
CCc1c(F)ccc2cc(O)cc(-c3ncc4c(NC[C@@H]5C[C@H]5C(=O)N(C)C(C)=O)nc(OC[C@@]56CCCN5C[C@H](F)C6)nc4c3F)c12 [Example 281]: 8

(A) O=C[C@@H]1[C@@H]2CC[C@H]1CN(c1nc(OCC34CCCN3CCC4)nc3c(F)c(-c4cccc5cccc(F)c45)ncc13)C2 [Example 17]
(B) N#Cc1ccccc1OC(=O)C1CCN(c2nc(OCC34CCCN3CCC4)nc3c(F)c(-c4cccc5cccc(F)c45)ncc23)CC1 [Example 27]
(C) CN(C(=O)C1CCN(c2nc(OC[C@@]34CCCN3C[C@H](F)C4)nc3c(F)c(-c4ccc(F)c5sc(N)c(C#N)c45)c(Cl)cc23)CC1)c1ccncn1 [Example 290]
(D) O=C(Oc1ccccc1F)[C@@H]1[C@@H]2CC[C@H]1CN(c1nc(OCC34CCCN3CCC4)nc3c(F)c(-c4cccc5cccc(F)c45)ncc13)C2 [Example 25]
Task item: Hello, I need these entries ordered by IC50, highest reading first. Thanks! Would you mind listing the labels in the order requested?
Reply: B, D, A, C

----------
SYSTEM UNDER TEST: KRas WT (Homo sapiens, UniProt P01116)
Construct: Biotinylated KRas (corresponding to amino acids 1-169, produced at Accelegan Inc.); biotin (biotinylated); purchased Accelegan Inc
METHOD: KRas binding assay, TR-FRET displacement of Cy5 labelled tracer
RUN PARAMETERS: 60-minute incubation at room temperature, 1% DMSO, pH 7.5
Description: This Example illustrates that exemplary compounds of the present invention bind to KRas and are capable of displacing a labeled tracer ligand occupying the KRas binding site. […] The ability of a compound to bind to KRas was measured using a TR-FRET displacement assay. […] After a 60-minute incubation at room temperature, the reaction was measured using a BMG LABTECH CLARIO star Plus via TR-FRET. […]
PROPERTY LABEL: IC50 (nM)

CCc1c(F)ccc2cc(O)cc(-c3ncc4c(N(C)CCC(=O)n5ccc(C)n5)nc(OC[C@@]56CCCN5C[C@H](F)C6)nc4c3F)c12: 30

(I) CCc1c(F)ccc2cc(O)cc(-c3ncc4c(N5CCC(C(=O)Oc6ccccc6)CC5)nc(OC[C@@]56CCCN5C[C@H](F)C6)nc4c3F)c12
(II) CC(=O)N(C)C(=O)C1CCN(c2nc(OC[C@@]34CCCN3C[C@H](F)C4)nc3c(F)c(-c4ccc(F)c5sc(N)c(C#N)c45)c(Cl)cc23)CC1 [Example 254]
Task item: # returns the entry with the larger IC50; inputs I and II Label of pick, please.
Reply: I
(I: 195 nM, II: 4 nM)

(a) CCc1c(F)ccc2cc(O)cc(-c3ncc4c(NCC5CC(C(=O)n6ccc(C)n6)C5)nc(OC[C@@]56CCCN5C[C@H](F)C6)nc4c3F)c12 (stereo partly drawn)
(b) CCc1c(F)ccc2cc(O)cc(-c3ncc4c(N5CCC(C(=O)OC)CC5)nc(OC[C@@]56CCCN5C[C@H](F)C6)nc4c3F)c12
Task item: # returns the entry with the larger IC50; inputs a and b Label of pick, please.
Reply: b
(b: 23 nM, a: 13 nM)
